- ASSAY_COMMENT: NCI Yeast Anticancer Drug Screen. Data for the bub3 strain (AID 167)
- RECORDED_CONDITIONS: S. cerevisiae bub3 mutant strain, at 50.0 µM
Compounds without any hit were thinned out: in the full panel of roughly 79,000, 15% have a hit. Activity calls are given as the source filed them. No stated cut-off is given here; in the data, active means growth inhibition above about 70%; inactive means the rest.
Allowed answers: y for active, n for inactive

compound="CN=C1CC2CCCC1C2 (stereo unspecified)" class=n
compound=N#CC(=C1CCCCC1)c1ccccc1 class=n
compound=COC(=O)NC1=Nc2ccccc2N(C(=O)Oc2ccccc2)S1 class=y
compound="CCOC(=O)C(=O)C1CC(c2ccccc2)=NNC1=O (stereo unspecified)" class=n
compound="CC(C)C1CSC2N1C(=O)C2(OCc1ccccc1)C1CC1 (stereo unspecified)" class=n

Next compound, please.
QUERY: Status in this test for CC(=O)O[C@@H]1[C@H]2O[C@H]2[C@H]2O[C@@]2(COC(=O)c2ccccc2)[C@H]1OC(C)=O ?
RESULT: n

###

- ASSAY_COMMENT: NCI Yeast Anticancer Drug Screen. Data for the sgs1 mgt1 strain (AID 161);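 further: 0% = growth of cultures given vehicle only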
- RECORDED_CONDITIONS: S. cerevisiae sgs1 mgt1 strain, at 50.0 µM, hits give high values
This is part of a sample that, as a whole, favours compounds with a hit. Of some 79,000 tested, about 15% had one in any assay.
ASSAY_READOUT: growth inhibition (%)
Numbers only, in %.

Use these answered entries as a reference point.
compound="CC[C@@]1(C)CCC2c3ccc(O)cc3CC[C@H]2C1C (stereo partly specified)" unit_label=% reported_measurement=21.4
compound=CN(C)c1ccc(/C=N\N=C\c2ccco2)cc1 unit_label=% reported_measurement=22.6

For every item in the list below, what is its measured growth inhibition?
1. O=C(Cn1c(=O)oc2ccc(C(=O)c3ccccc3Cl)cc21)c1ccc([N+](=O)[O-])cc1
2. CCOC(=O)c1ccc(Cl)cc1

RESULT:
[13, -25.1]

For every item in the list below, what is its measured growth inhibition?
1. C/C(=N\NC(N)=S)C(CN(CC(C)C)CC(C)C)C(=O)Nc1ccc(C)cc1C (stereo unspecified)
2. OCC(Cl)(Cl)C(Cl)(Cl)CO

RESULT:
1: -7.15; 2: -12.7

###

- ASSAY_COMMENT: NCI Yeast Anticancer Drug Screen. Data for the sgs1 mgt1 strain (AID 161);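 further: 0% = growth of cultures given vehicle only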
- RECORDED_CONDITIONS: S. cerevisiae sgs1 mgt1 strain, at 50.0 µM, hits give high values
About 79,000 compounds went through this panel and 15% of them were active in at least one assay; those are over-represented in the sample as a whole.
Answer each item with its documented growth inhibition.
One number for each entry, in %.

compound="NC(Cc1c(F)c(F)c(F)c(F)c1F)C(=O)O (centres undefined)" reported_measurement=11.2

For every item in the list below, what is its measured growth inhibition?
1. CCCCCCNC(=O)NC
2. CCCCC#CCC#Cc1ccccc1

RESULT:
1. -16.8
2. 6.85

For every item in the list below, what is its measured growth inhibition?
1. NC(N)=NC(N)=Nc1ccc(N=C(N)N=C(N)N)cc1
2. CCC1(c2ccccc2)CCCC/C1=N/NC(N)=O (centres undefined)

RESULT:
1. -6.2
2. -0.8

For every item in the list below, what is its measured growth inhibition?
1. C=C1CC23CC[C@H]4[C@@](C)(CCC[C@@]4(C)C(=O)OC4OC(CO)C(O)C(O)C4O)[C@@H]2CC[C@@]1(OC1OC(CO)C(O)C(O)C1OC1OC(CO)C(O)C(O)C1O)C3 (some centres undefined)
2. COc1cc2c(c(OC)c1OC)-c1ccc(SC)c(=O)cc1[C@@H](NC1OCC(O)C(O)C1O)CC2 (some centres undefined)
3. COC(=O)C(=O)C(C(=O)C(=O)Nc1cccc([N+](=O)[O-])c1)c1nc2ccc(Cl)cc2[nH]c1=O (centres undefined)
4. CS(=O)(=O)OCCCCOS(=O)(=O)CF

RESULT:
[-38.1, 24.1, 14.2, -31.4]
